Data origin: paper PMC9482650

Measurement target: DLG1_3, Q12959
Sequence (Q12959 457-571): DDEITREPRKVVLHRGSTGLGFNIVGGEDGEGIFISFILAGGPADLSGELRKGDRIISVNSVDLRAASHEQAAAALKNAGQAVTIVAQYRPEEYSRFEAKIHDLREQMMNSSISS
Assay info: holdup assay
Design: key: below the threshold = too weak to quantify, mostly under pKd 3.1 to 4
Study conditions: plain residues with an end cap or a label only (N-terminal biotin on a linker: ado-ado)
Result type: pKd

- Binder: "PEKVSNTTVV [IGSF5, Q9NSI5]"
  Recorded measurement: "below the threshold"
- Binder: "EKPIDSETKM [SLC1A3, P43003]"
  Recorded measurement: "below the threshold"
- Binder: "GTMFLRETSL [GUCY1A2, P33402]"
  Recorded measurement: 5.09
- Binder: "SSSVNVSSNL [CXCR1, P25024]"
  Recorded measurement: "below the threshold"
